- Target under test: Amine oxidase [flavin-containing] A (Mus musculus, UniProt Q64133)
- Sequence (Q64133 whole entry): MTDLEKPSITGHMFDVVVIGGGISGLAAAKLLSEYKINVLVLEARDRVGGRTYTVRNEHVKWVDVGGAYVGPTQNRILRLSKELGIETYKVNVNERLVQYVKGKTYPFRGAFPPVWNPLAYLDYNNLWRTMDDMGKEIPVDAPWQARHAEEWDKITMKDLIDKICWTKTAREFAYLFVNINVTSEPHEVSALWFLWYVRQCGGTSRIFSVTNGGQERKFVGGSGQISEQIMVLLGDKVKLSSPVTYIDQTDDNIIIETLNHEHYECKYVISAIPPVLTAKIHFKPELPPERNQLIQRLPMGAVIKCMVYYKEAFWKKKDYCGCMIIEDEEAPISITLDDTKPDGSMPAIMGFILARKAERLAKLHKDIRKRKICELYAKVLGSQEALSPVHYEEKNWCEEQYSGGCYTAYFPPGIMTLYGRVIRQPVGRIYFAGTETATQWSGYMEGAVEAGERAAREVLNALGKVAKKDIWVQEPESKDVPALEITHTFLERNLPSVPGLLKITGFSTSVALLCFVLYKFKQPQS
- Test protocol: Inhibition of MAO-A in mouse brain mitochondrial fraction using kynuramine as substrate after 30 mins by fluorometric analysis

Compound: C=C(C)C(O)CC/C(C)=C/COc1ccc2ccc(=O)oc2c1 (stereo unspecified)
IC50: 1.3 µM

----------
- Organism: Homo sapiens
- Test protocol: Selectivity index, ratio of IC50 for human recombinant MAO-B expressed in baculovirus infected BTI insect cells to IC50 for human recombinant MAO-A expressed in baculovirus infected BTI insect cells
Readout name: Ratio IC50

Molecule: O=c1ccc2c(ccc3ccoc32)o1 [BAKUCHICIN]
Value comparator: =
Numeric value: 3.1

Molecule: CC(C)=CCc1c(O)ccc2ccc(=O)oc12 [OSTHENOL]
Value comparator: >
Numeric value: 81.1

Molecule: O=c1ccc2ccc3occc3c2o1 [ANGELICIN]
Value comparator: =
Numeric value: 3.1

Molecule: COc1ccc(-c2oc3cc(O)cc(O)c3c(=O)c2O)cc1 [KAEMPFERIDE]
Value comparator: =
Numeric value: 0.89
